Just for reference, paper PMC7896091 is where these values come from.

Tested on: MV4-11 cells
assay remarks: Antiproliferative activity, MTT assay
Type: cell-based, human
assay setup: Homo sapiens, MV4-11; 72 h exposure, MTT, mean ± SD; n.a = no activity in concentration of 5, 25, 125, 625 μM
parameter: IC50 (µM)
Numeric answer only, unit µM assumed.

// CC(C)CCCC(C)CCCC(C)CCC[C@]1(C)CC(=O)O[C@@H]1CBr (stereo in doubt) [compound 4] : IC50 value = 46.9

// CC(C)CCCC(C)CCCC(C)CCC[C@]1(C)CC(=O)O[C@@H]1CCl (stereo in doubt) [compound 6] : IC50 value = 48.3

// CC(C)CCCC(C)CCCC(C)CCC[C@]1(C)CC(=O)O[C@H]1CBr (stereo in doubt) [compound 5] : IC50 value = 52

// CC(C)CCCC(C)CCCC(C)CCC[C@]1(C)CC(=O)O[C@H]1CCl (stereo in doubt) [compound 7] : IC50 value = 110
